pKd: −log10 of the molar value.
Parameter 'readout' = pKd; parameter 'system' = TYK2 (Homo sapiens, UniProt P29597).
Sequence (P29597 whole entry): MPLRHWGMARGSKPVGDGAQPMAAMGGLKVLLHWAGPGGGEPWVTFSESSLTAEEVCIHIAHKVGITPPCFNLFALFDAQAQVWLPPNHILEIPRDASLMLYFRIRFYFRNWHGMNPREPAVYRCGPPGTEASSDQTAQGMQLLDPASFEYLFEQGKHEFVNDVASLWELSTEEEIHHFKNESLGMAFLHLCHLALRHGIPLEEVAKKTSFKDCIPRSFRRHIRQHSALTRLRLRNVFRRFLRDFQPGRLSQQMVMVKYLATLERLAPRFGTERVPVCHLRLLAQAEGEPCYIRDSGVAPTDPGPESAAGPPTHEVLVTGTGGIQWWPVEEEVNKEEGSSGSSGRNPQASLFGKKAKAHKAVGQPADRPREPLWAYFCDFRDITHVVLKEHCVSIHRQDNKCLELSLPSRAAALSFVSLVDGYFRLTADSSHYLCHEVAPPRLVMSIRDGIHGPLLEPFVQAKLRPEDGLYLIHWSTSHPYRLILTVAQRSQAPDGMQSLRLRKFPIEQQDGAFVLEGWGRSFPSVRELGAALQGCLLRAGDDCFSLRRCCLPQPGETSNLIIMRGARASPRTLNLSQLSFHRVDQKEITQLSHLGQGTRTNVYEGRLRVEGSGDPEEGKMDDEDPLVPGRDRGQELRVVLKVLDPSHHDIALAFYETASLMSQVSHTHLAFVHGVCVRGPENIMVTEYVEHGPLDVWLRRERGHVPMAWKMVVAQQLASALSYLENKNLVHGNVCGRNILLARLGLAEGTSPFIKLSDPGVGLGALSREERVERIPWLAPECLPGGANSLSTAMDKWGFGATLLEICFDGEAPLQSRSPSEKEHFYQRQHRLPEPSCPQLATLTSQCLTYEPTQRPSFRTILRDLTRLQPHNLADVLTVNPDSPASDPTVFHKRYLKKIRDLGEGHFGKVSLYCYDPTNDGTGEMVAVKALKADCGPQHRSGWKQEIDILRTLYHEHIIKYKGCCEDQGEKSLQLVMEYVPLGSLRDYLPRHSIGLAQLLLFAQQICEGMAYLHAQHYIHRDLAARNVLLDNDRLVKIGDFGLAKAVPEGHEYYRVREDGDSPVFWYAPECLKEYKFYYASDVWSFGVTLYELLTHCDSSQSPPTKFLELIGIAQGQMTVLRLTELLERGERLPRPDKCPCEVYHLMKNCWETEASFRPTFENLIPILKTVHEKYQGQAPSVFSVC

Worked set:
Identify measured pKd corresponding to Cc1cc(Nc2nc(C(=O)c3ccc(F)cc3)nc3c(C)csc23)n[nH]1 [Example 22]
< 7.00

Identify measured pKd corresponding to Cc1cc(Nc2nc(C(O)c3ccc(F)cc3)nc3c(C)csc23)n[nH]1 (stereo not drawn) [Example 23]
≥ 8.00

Identify measured pKd corresponding to Cc1cc2c(Nc3cc[nH]n3)nc(C(F)(F)c3ccc(F)cc3)nc2s1 [Example 15]
< 7.00

Identify measured pKd corresponding to Cc1cc(Nc2nc(C(=O)c3ccc(F)cc3)nc3sccc23)n[nH]1 [Example 3]
7.00 to 8.00

Identify measured pKd corresponding to Cc1cc(Nc2nc(C(=O)c3ccc(F)cc3)nc3cc(C(C)(C)C)sc23)n[nH]1 [Example 26]
< 7.00

Identify measured pKd corresponding to Cc1csc2nc(C(=O)c3ccc(F)cc3)nc(Nc3cc[nH]n3)c12 [Example 12]
< 7.00

Identify measured pKd corresponding to Fc1ccc(C(F)(F)c2nc(Nc3cc[nH]n3)c3ccsc3n2)cc1 [Example 2]
≥ 8.00

Identify measured pKd corresponding to Cc1csc2nc(C(O)c3ccc(F)cc3)nc(Nc3cc[nH]n3)c12 (racemic) [Example 13]
< 7.00

Others:
Identify measured pKd corresponding to Cc1cc(Nc2nc(C(=O)c3ccc(F)cc3)nc3ccsc23)n[nH]1 [Example 5]
7.00 to 8.00

Values compiled from patent US20130317045A1.
